Here the recorded growth inhibition is given for each entry.
# testDescription: NCI Yeast Anticancer Drug Screen. Data for the mlh1 rad18 strain (AID 175)
# conditionSummary: S. cerevisiae mlh1 rad18 strain growth inhibition; at 50.0 µM; hits give high values
About 79,000 compounds went through this panel and 15% of them were active in at least one assay; those are over-represented in the sample as a whole.
Note: unit % is implicit; provide only the numeric part.

INSERT INTO results (compound, endpointname, valuereported) VALUES
  ('O=c1n(-c2ccccc2)c(=O)n2c(=O)n(-c3ccccc3)c(=O)n12', 'growth inhibition', 1.15),
  ('O=c1[nH]c(Nc2ccc(F)c(Cl)c2)nc2nc[nH]c12', 'growth inhibition', -23.7),
  ('Cn1c(=O)c2c3ccccc3c(C(=O)c3ccccc3)n2c2ccccc21', 'growth inhibition', 34.4),
  ('CC(=O)OC1C(O[C@H]2CC[C@]34O[C@]35CC[C@]3(C)C(C6(C)CC[C@@H](C(C)(C)O)O6)[C@@H](O)CC3(C)[C@@H]5CC(OC3OC(CO)C(O)C(O)C3O)C4C2(C)C)OCC(O)C1O (stereo not given in full)', 'growth inhibition', 6.35);

Reported growth inhibition ( CCC(=O)OC1CCC(OC(=O)CC)CC1 (stereo not given) ) = -6.2

---

# testDescription: NCI Yeast Anticancer Drug Screen. Data for the bub3 strain (AID 167)
# conditionSummary: S. cerevisiae bub3 mutant strain, at 50.0 µM, hits give high values
This is part of a sample that, as a whole, favours compounds with a hit. Of some 79,000 tested, about 15% had one in any assay.
endpointName: growth inhibition (%)
Note: unit % is implicit; provide only the numeric part.

Please review the following examples before continuing.
INSERT INTO assay_data (compound, unitinfo, valuereported) VALUES
  ('CC(=O)N1CCN(c2ccccc2Cl)CC1', '%', -10.6),
  ('CC(C)N(C(=O)c1ccc([Si](C)(C)C)c(C(=O)N(C(C)C)C(C)C)n1)C(C)C', '%', 0.1),
  ('O=c1c(SCc2ccc(Cl)cc2)c(SCc2ccc(Cl)cc2)cnn1-c1ccccc1', '%', -6.6);

Okay, now this compound:
Reported growth inhibition ( `N#Cc1nc(CC(=O)c2ccc(Cl)c(Cl)c2)c(CC(=O)c2ccc(Cl)c(Cl)c2)nc1C#N` ) = 27.6

---

# testDescription: NCI Yeast Anticancer Drug Screen. Data for the mec2-1 strain (AID 157)
# conditionSummary: S. cerevisiae mec2-1 strain, at 50.0 µM, hits give high values
Compounds without any hit were thinned out: in the full panel of roughly 79,000, 15% have a hit.
Here the recorded growth inhibition is given for each entry.
Note: unit % is implicit; provide only the numeric part.

Please review the following examples before continuing.
INSERT INTO assay_data (compound, endpointname, valuereported) VALUES
  ('O=C1NC(=O)C(=CN2C(=O)/C(=C/c3ccc([N+](=O)[O-])cc3)SC2=S)C(=O)N1', 'growth inhibition', 33.2),
  ('CC1(C)CCCC2(C)[C@@H]1CC[C@]13C[C@](C)(CC[C@@H]21)[C@@H]3CO (stereo partly specified)', 'growth inhibition', -2.9),
  ('C=C1CC(C)(Cn2cnc3c(=O)[nH]cnc32)OC1=O (stereo unspecified)', 'growth inhibition', 22.7);

Reported growth inhibition ( `CCc1cc(CSc2ccc(Cl)cc2)ccc1N` ) = 99

Reported growth inhibition ( COc1cc(C2c3cc4c(cc3OC(NNC(N)=S)C2C)OCO4)cc(OC)c1OC (stereo unspecified) ) = -17.4

Reported growth inhibition ( `CC(=O)Nc1nnnn1C` ) = -2.3
